Biological target: T1, ferroportin tagged at the C-terminus with green fluorescent protein (ECR293/Fpn-GFP cells)
T1 sequence (Q9NP59 whole entry, species assumed, looked up): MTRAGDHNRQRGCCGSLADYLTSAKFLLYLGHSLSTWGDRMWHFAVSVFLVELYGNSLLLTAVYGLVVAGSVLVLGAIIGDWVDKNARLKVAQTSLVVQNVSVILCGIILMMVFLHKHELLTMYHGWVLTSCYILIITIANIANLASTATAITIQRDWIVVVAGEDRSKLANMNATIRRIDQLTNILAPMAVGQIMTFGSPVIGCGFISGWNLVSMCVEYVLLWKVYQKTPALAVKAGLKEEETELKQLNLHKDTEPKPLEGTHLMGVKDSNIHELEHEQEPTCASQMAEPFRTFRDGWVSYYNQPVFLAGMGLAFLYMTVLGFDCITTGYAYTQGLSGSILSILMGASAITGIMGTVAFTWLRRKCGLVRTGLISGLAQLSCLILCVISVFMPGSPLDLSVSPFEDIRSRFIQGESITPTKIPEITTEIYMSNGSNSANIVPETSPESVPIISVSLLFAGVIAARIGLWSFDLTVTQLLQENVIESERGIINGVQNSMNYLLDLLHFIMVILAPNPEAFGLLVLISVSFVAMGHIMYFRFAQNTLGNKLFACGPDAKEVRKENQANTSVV
Experiment: cell-based or functional assay
Square brackets hold non-standard residues; d marks the D form. Ends that are not written are not given here. β3hF = N[C@H](CC(=O)O)Cc1ccccc1; Dpa = not defined here
For each of the binders below, state its EC50 (nM); loss of fluorescence of Fpn-GFP cells, flow cytometry.
Answers are plain numbers, in nM.

[
  {
    "binder": "D[Dpa]PICI[Dpa]-NH2 (reading uncertain) [Pr41]",
    "reported.measurement": 300
  }
]

# next binder below
Inquiry: # query: EC50 (nM); loss of fluorescence of Fpn-GFP cells, flow cytometry of entry DTHFPICI[β3hF]PPR-NH2 [Pr20]
Reply text: 200
